- study target: OTU domain-containing protein 3 (Homo sapiens)
- run description: Validation of screening hits, potency titration, in vitro enzymatic, OTU domain-containing protein 3 DUB inhibitors (AID 1645868)
- experimental conditions: purified OTUD3, ubiquitin-rhodamine cleavage fluorescence, 2 h
Activity calls are given as the source filed them.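 Rule for the calls: active = maximal percent inhibition of the deubiquitinase OTUD3 of at least 30% across the tested doses; inactive = the rest.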
Classes used: active, inactive

>>> class_name("CCn1c(=O)c2ccccc2n(Cc2nc(-c3ccccc3OC)no2)c1=O")
"inactive"
>>> class_name("COc1cccc(CCNC(=O)CCn2c(=O)c(C)nc3cc(C)c(C)cc32)c1")
"inactive"
>>> class_name("CC(Nc1ncnc2c1sc1nc(N3CCOCC3)c3c(c12)CCC3)c1ccccc1 (stereo not given)")
"inactive"
>>> class_name("COc1cccc(NC(=O)C2Cn3ccnc3C3(CCN(C(C)=O)CC3)O2)c1 (stereo not given)")
"inactive"
>>> class_name("CC(C)CCCCCCCCCCC(=O)N(C)[C@H](CO)C(=O)N[C@H](C)C(=O)NCC(=O)N(C)C1C(=O)N[C@@H](C)C(=O)NC(C(=O)O)Cc2ccc(O)c(c2)-c2cc1ccc2O (stereo not given in full)")
"inactive"
>>> class_name("COc1ccc(NC(=O)c2[nH]nc3c2COc2ccccc2-3)c(OC)c1")
"active"
>>> class_name("COCC(=O)Nc1cc(F)c2nc(N3CCOCC3)ccc2c1")
"inactive"
>>> class_name("O=C(NCc1cccnc1)c1cnn2c(C(F)(F)F)cc(-c3ccc(F)cc3)nc12")
"inactive"
>>> class_name("COc1ccc(NC2c3ccccc3C(=O)N2c2ccccn2)cc1 (stereo not given)")
"inactive"
>>> class_name("Cc1ccc2cc(CNc3ccccc3)c(=O)n(CC(=O)Nc3ccccc3C)c2c1")
"active"
>>> class_name("CCC(=O)Nc1nc2cc(NC(=O)Nc3cc(C)cc(C)c3)ccc2s1")
"active"
>>> class_name("CC(C)(C)C(=O)Nc1ccc(C(=O)Nc2cccc(-c3nnc(-c4ccccc4)o3)c2)cc1")
"active"
>>> class_name("COc1ccc(C2C(C(=O)C(C)(C)C)N3c4ccccc4C=CC3C23C(=O)c2ccccc2C3=O)c(OC)c1 (stereo not given)")
"inactive"
>>> class_name("Cc1ncncc1C(=O)N1CCCC(C)(c2ncc(Cc3cccc(F)c3)o2)C1 (stereo not given)")
"inactive"
>>> class_name("COc1ccc(OC)c(C2CC(=O)Nc3n[nH]c(-c4ccccc4)c32)c1 (stereo not given)")
"active"
>>> class_name("COc1cc(C(=O)OCc2csc(-c3ccccc3)n2)ccc1OCC(=O)Nc1ccc(F)cc1")
"inactive"
>>> class_name("CCCCN(CC)c1ncnc2c1sc1nc(-c3ccco3)c3c(c12)CC(C)(C)OC3")
"inactive"
>>> class_name("O=C(CCc1ccc(S(=O)(=O)N2CCOCC2)cc1)Nc1ccc2c(c1)OCCO2")
"inactive"
>>> class_name("O=C(Nc1ccc2c(c1)OCCO2)Nc1nnc(CC(=O)N2CCCCC2)s1")
"inactive"
>>> class_name("O=C(Cn1nc2ccc(C(=O)NCc3ccccc3)cn2c1=O)Nc1ccc2c(c1)OCO2")
"active"
>>> class_name("O=C(/C=C/c1ccc(F)cc1)N1CCC(Cc2ccccc2)CC1")
"active"
>>> class_name("Nc1c(-c2ccc(Cl)cc2)cnc2cc(-c3ccc(Cl)c(Cl)c3)nn12")
"active"
>>> class_name("COc1ccc(-c2ccnc(-c3ccc(OCc4cccc(F)c4)cc3)n2)cc1")
"active"
>>> class_name("COc1ccc(C2SCC(=O)Nc3c2c(=O)[nH]n3C2CCCCCC2)cc1 (stereo not given)")
"active"
>>> class_name("CC1CCN(S(=O)(=O)c2ccc(C(=O)Nc3ccc(S(N)(=O)=O)cc3)cc2)CC1")
"inactive"
>>> class_name("Cc1ccc(-c2nnc(-n3ncc(C#N)c3N)c3ccccc23)cc1C")
"inactive"
>>> class_name("COc1ccc2nc(SCC(=O)Nc3ccc(NC(C)=O)cc3)c(C)cc2c1")
"active"
>>> class_name("CC1OC2CC(O)C1(O)C1=C2C(=O)c2c(O)c3c(c(O)c2C1=O)[C@H](C)O[C@H]1CC(=O)O[C@@H]31 (stereo not given in full)")
"inactive"
>>> class_name("COc1cc(C)c2c(=O)c3c(oc2c1)C(=O)c1c(O)c(OC)cc(O)c1C3=O")
"active"
>>> class_name("Cc1ccc(CNC(=O)CCCn2c(=O)c3sccc3n(CC(=O)OCc3ccccc3)c2=O)cc1")
"active"
>>> class_name("CCCCOc1ccc(C(=O)Nc2ccc3c(c2)CCC(=O)N3CCC)cc1")
"inactive"
>>> class_name("CCCC(=O)Nc1ccc(SCc2nnc(-c3ccccc3)o2)cc1")
"inactive"
>>> class_name("Cc1ccc(-n2c(=O)[nH]c3c(C(N)=O)nc(-c4cccnc4)nc32)cc1")
"active"
>>> class_name("CCCC(=O)c1c[nH]c(C(=O)NCc2ccc(F)cc2)c1")
"active"
>>> class_name("O=C(CSc1ccc(-c2cccc([N+](=O)[O-])c2)nn1)Nc1cccc(F)c1")
"active"
>>> class_name("CN(Cc1ccccc1)S(=O)(=O)c1ccc(S(=O)(=O)N2CCN(C(=O)c3cccnc3)CC2)cc1")
"inactive"
>>> class_name("COc1ccc(C)cc1NC(=O)COc1ccc2c(c1)OCO2")
"inactive"
>>> class_name("O=C(NCc1ccc(-c2nc3cnccc3o2)cc1)c1ccccc1Br")
"inactive"
>>> class_name("Cc1c(C)c2ccc(OCC(=O)NCc3ccncc3)c(C)c2oc1=O")
"inactive"
>>> class_name("Cc1cc(C(=O)Nc2ccc3nc(N4CCN(c5ncccn5)CC4)cc(C)c3c2)ccc1[N+](=O)[O-]")
"inactive"
